Reported GI50 by item:
# Tested on: UACC-257
# assay-notes: NCI tumour cell line growth inhibition, 48 h
Activity calls are given as the source filed them. No stated cut-off is given here; in the data, active = GI50 up to about 1.1 µM and inactive = higher.
measurement-kind: GI50

[[record]]
compound = "CCC1(O)C(=O)OCc2c1cc1n(c2=O)Cc2cc3ccc(C=O)cc3nc2-1 (configuration not stated)"
endpoint_result = "6.19 µM (inactive)"

[[record]]
compound = "Clc1ccc2[nH]c(CC3CCCC3)nc2c1"
endpoint_result = "88.1 µM (inactive)"

[[record]]
compound = "O=c1[nH]cc(COCCCO)c(=O)[nH]1"
endpoint_result = "> 100 µM (inactive)"

[[record]]
compound = "Cc1ccc2c(c1)C(=O)C(C1OC(=O)c3ccccc31)C2 (configuration not stated)"
endpoint_result = "> 100 µM (inactive)"

[[record]]
compound = "COc1cccc2cc(C(=O)Nc3ccccn3)c(=N)oc12"
endpoint_result = "> 100 µM (inactive)"

[[record]]
compound = "CN(C)C(=N/O)/C(=N\\O)N(C)C"
endpoint_result = "> 100 µM (inactive)"

[[record]]
compound = "Clc1ccc(Nc2ncco2)cc1Cl"
endpoint_result = "> 10 µM (inactive)"

